# targetOrTestSystem: glucagon receptor (GCGR), primary cAMP assay (human, UniProt P47871 26-477)
# Sequence (P47871 26-477): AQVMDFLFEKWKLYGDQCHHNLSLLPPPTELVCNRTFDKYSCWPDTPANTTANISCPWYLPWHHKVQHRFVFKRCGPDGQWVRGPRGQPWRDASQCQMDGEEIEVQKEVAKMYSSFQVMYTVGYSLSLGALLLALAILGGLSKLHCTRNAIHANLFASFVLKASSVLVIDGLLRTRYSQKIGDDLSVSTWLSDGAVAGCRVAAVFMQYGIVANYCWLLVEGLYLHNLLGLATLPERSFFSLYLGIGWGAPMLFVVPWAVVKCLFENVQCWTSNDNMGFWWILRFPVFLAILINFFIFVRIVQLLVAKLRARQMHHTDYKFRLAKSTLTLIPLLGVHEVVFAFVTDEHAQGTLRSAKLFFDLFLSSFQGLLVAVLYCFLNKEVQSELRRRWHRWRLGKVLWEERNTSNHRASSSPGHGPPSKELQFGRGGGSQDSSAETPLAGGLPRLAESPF
# measurementNotes: cell-based or functional assay
Starred links: 1 amine or outer side, 2 acyl side, 3 side chain; linkers in the order of their positions; H or OH if unused. Non-standard residues stand in square brackets, D forms with d. Groups on a side chain read outwards from the residue. Primed or numbered codes have the meaning given here. No end group written: not given here. *: point of attachment. γGlu = O=C(O)[C@H](CCC(=O)[*:2])N[*:1]; Palmitoyl = CCCCCCCCCCCCCCCC(=O)*; αMeF = C[C@](N)(Cc1ccccc1)C(=O)O; αMeK = C[C@](N)(CCCCN)C(=O)O; Lauroyl = CCCCCCCCCCCC(=O)*; αMeS = C[C@](N)(CO)C(=O)O; Nle = CCCC[C@H](N)C(=O)O; PEG2′ = not defined here; Aib = CC(C)(N)C(=O)O
quantityName: Primary assay EC50 (cAMP), n2 (nM)
Numbers only here, please. The scale is nM.

Below, 7 binders whose answers are already recorded.
Please report the recorded Primary assay EC50 (cAMP), n2 for H[Aib]EGS[αMeF]TSDVSK([PEG2′-PEG2′-γGlu-Lauroyl])YLEGEAAEEFIK([PEG2′-PEG2′-γGlu-Lauroyl])WVVEGG-NH2 [SEQ ID NO: 240] .
22.2

Consider the binder shown here: H[Aib]EGS[αMeF]TSDVSK([PEG2′-PEG2′-γGlu-Palmitoyl])YLEGEAA[αMeK]EFIAWK([PEG2′-PEG2′-γGlu-Palmitoyl])VEGG-NH2 [SEQ ID NO: 255] What is its recorded Primary assay EC50 (cAMP), n2?
21.5

Tell me the measured Primary assay EC50 (cAMP), n2 of H[Aib]EGS[αMeF]TSDV[αMeS]SK([PEG2′-PEG2′-γGlu-Palmitoyl])LEGEAA[αMeK]EFIAWK([PEG2′-PEG2′-γGlu-Palmitoyl])VEGG-NH2 [SEQ ID NO: 267] , please.
21.7

Need Primary assay EC50 (cAMP), n2 of H[Aib]EGS[αMeF]TSDV[αMeS]SK([PEG2′-PEG2′-γGlu-Lauroyl])LEGEAA[αMeK]E[Nle]IAK([PEG2′-PEG2′-γGlu-Lauroyl])VVEGG-NH2 [SEQ ID NO: 407] , thanks.
21.5

What does the data say about its Primary assay EC50 (cAMP), n2? Entry: H[Aib]EGTFTSDVSK([PEG2′-PEG2′-γGlu-Palmitoyl])YLEGEAAEEFIK([PEG2′-PEG2′-γGlu-Palmitoyl])WVVEGG-NH2 [SEQ ID NO: 242]
21.4

# query: Primary assay EC50 (cAMP), n2 of entry H[Aib]EGS[αMeF]TSDK([PEG2′-PEG2′-γGlu-Lauroyl])SSYLEGEAA[αMeK]EFIK([PEG2′-PEG2′-γGlu-Lauroyl])WVVEGG-NH2 [SEQ ID NO: 256]
22.2

Looking for the measured Primary assay EC50 (cAMP), n2 of H[Aib]EGS[αMeF]TSDV[αMeS]SYK([PEG2′-PEG2′-γGlu-Palmitoyl])EGEAA[αMeK]EFIAK([PEG2′-PEG2′-γGlu-Palmitoyl])VVEGG-NH2 [SEQ ID NO: 272] , can you help?
21.9

More entries:
Data request, read-out Primary assay EC50 (cAMP), n2, for H[Aib]EGS[αMeF]TSDK([PEG2′-PEG2′-γGlu-Palmitoyl])SSYLEGEAA[αMeK]EFIAWK([PEG2′-PEG2′-γGlu-Palmitoyl])VEGG-NH2 [SEQ ID NO: 261]
23
